Target: CLK2 kinase (Homo sapiens, UniProt P49760)
Sequence (P49760 whole entry): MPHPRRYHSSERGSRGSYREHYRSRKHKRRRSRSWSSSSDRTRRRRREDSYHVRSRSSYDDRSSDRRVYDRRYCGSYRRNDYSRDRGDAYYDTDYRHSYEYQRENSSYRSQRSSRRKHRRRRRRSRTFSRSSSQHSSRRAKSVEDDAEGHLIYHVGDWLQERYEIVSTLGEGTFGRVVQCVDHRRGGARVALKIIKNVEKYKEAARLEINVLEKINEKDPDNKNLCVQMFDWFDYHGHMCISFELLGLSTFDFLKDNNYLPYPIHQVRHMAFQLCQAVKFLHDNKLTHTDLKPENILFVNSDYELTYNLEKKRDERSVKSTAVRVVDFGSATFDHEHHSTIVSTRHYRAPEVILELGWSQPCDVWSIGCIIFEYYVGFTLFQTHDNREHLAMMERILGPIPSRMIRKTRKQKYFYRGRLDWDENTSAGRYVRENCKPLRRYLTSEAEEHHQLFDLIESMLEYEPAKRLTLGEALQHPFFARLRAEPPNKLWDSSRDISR
Test: CLK2 kinase activity assay (Z-lyte FRET);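 note: FRET read-out as coumarin to fluorescein emission ratio, unphosphorylated peptide as 0% and phosphorylated peptide as 100% controls, duplicate reactions, non-linear regression fit of dose-response curves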
Conditions: Z-lyte Ser/Thr 6 peptide, 60 μM ATP, 1 h at room temperature
measurementName: pEC50
Here pEC50 is given on a logarithmic scale as minus log10 of the concentration in mol/L.

Consider the reported pEC50 for these compounds:
Cc1ccncc1-c1cnc2[nH]nc(-c3cc4c(-c5cccnc5)cncc4[nH]3)c2c1 [compound 345] :: 8.52
Oc1cncc(-c2ccc3[nH]nc(-c4nc5c(-c6cccc(F)c6)cncc5[nH]4)c3n2)c1 [compound 145] :: 8.30

Q: Determine from records and report pEC50 for Cn1cc(-c2cnc3[nH]nc(-c4nc5c(-c6cccc(F)c6)nccc5[nH]4)c3c2)cn1 [compound 155]
Result: 7.85

Q: Identify measured pEC50 associated with Oc1cncc(-c2ccc3[nH]nc(-c4nc5c(-c6cccc(F)c6)nccc5[nH]4)c3n2)c1 [compound 144]
Result: 8.30
